# credit: patent US20120101093A1

System: Aβ1-40 secreted from HEK293 cells stably expressing wildtype human APP695 protein (HEK-APPwt cells)
test details: Aβ Cell Based Assay (Aβ1-40 secretion, ELISA)
conditions: Homo sapiens, HEK293, 6 h, 6 hours incubation, reduction of Aβ1-40 secretion
experimental readout: log10(EC50) (log10 of the value in µM)
Would you kindly interpret these values as log10 of EC50 expressed in µM?

Requested field: log10(EC50). Item: COc1cc(F)cn2cc(C(=O)Nc3nc4cc(-c5cc(F)cc(Cl)c5)ccc4[nH]3)nc12
0.20

----------
assay system: BACE-1 enzyme (Homo sapiens)
Construct: purchased R & D Systems 931AS
Sequence (P56817 46-457 limits assumed): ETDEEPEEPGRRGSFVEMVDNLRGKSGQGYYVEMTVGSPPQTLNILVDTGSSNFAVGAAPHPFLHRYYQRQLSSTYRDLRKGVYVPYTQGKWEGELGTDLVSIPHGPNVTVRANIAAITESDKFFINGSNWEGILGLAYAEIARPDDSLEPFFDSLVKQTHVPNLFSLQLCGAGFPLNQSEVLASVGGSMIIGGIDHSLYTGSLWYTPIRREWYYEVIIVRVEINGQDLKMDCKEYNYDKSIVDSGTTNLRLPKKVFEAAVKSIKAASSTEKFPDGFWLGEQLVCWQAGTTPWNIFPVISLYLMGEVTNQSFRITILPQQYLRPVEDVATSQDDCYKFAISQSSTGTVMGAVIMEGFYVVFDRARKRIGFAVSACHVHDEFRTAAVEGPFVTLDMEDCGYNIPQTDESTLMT
test details: BACE Fluorescence Resonance Energy Transfer (FRET) Assay
Type: biochemical
conditions: pH 4-4.5, 30 min pre-incubation, about 1.5 hours reaction
experimental readout: IC50 (µM)
Respond with the bare value in µM.

Use the examples below as a reference point.
1) CN(C)Cc1cccc2nc(C(=O)Nc3nc4cc(-c5cccc(C(F)(F)F)c5)ccc4[nH]3)cn12 [Example 163] ... 0.36
2) CCOc1ccc(-c2ccc3[nH]c(NC(=O)c4cn5c(C)cccc5n4)nc3c2)cc1C [Example 107] ... 0.84
3) CNC(=O)c1cccc2nc(C(=O)Nc3nc4cc(-c5cc(F)cc(Cl)c5)ccc4[nH]3)cn12 [Example 226] ... 0.29
4) Cc1cccc2nc(C(=O)Nc3nc4ccc(-c5cccc(C(F)(F)F)c5)cc4n3C)cn12 [Example 11] ... 0.55
5) Cc1cccc2nc(C(=O)Nc3nc4cc(-c5cccc(OC6CCCCC6)c5)ccc4[nH]3)cn12 [Example 40] ... 2.55

Requested field: IC50. Item: CN1CC=C(c2cccc3nc(C(=O)Nc4nc5cc(-c6cccc(C(F)(F)F)c6)ccc5[nH]4)cn23)CC1 [Example 215]
0.41

Same again, this time with O=C(Nc1nc2cc(-c3cccc(C(F)(F)F)c3)ccc2[nH]1)c1cn2c(N3CCOCC3)cccc2n1 [Example 123]
2.11

Same again, this time with O=C(Nc1nc2cc(-c3cccc(C(F)(F)F)c3)ccc2[nH]1)c1cn2cc(CO)ccc2n1 [Example 177]
0.3

----------
System: Aβ1-40 secreted from HEK293 cells stably expressing wildtype human APP695 protein (HEK-APPwt cells)
test details: Aβ Cell Based Assay (Aβ1-40 secretion, ELISA)
conditions: Homo sapiens, HEK293, 6 h, 6 hours incubation, reduction of Aβ1-40 secretion
The entries below are paired with their reported log10 of EC50.
Would you kindly interpret these values as log10 of EC50 expressed in µM?

1. COc1cc(-c2ccc3[nH]c(NC(=O)c4cn5c(C)cccc5n4)nc3c2)cc(C(F)(F)F)c1 ... -0.01
2. Cc1cccc2nc(C(=O)Nc3nc4cc(C5=CCCCC5)ccc4[nH]3)cn12 ... 0.62
3. O=C(Nc1nc2cc(-c3cccc(C(F)(F)F)c3)ccc2[nH]1)c1cn2cc(CO)ccc2n1 ... 0.01
4. Cc1cccc2nc(C(=O)Nc3nc4cc(-c5ccc(O)c(C(F)(F)F)c5)ccc4[nH]3)cn12 ... 0.39
5. O=C(Nc1nc2cc(-c3cccc(C(F)(F)F)c3)ccc2[nH]1)c1cn2cccc(CO)c2n1 ... 0.41

Requested field: log10 of EC50. Item: Cc1cccc2nc(C(=O)Nc3nc4ccc(-c5cc(F)cc(Cl)c5)cc4[nH]3)cn12
-0.62
